Test system: Bacteroides dorei
method notes: growth AUC relative to DMSO control (median of replicates) (fraction); higher = more growth (less inhibition), active = hit call of the paper
measurement context: 20 µM; 24 h
Kindly state growth AUC for each of the entries shown.
Lab note: record the figure alone, no unit after it.

Query: Provide measured growth AUC value, entry: `COC(=O)COc1ccc(Cl)cc1C`
Response: 1.01

Query: Write down growth AUC measured for item ClC(COCC(Cl)C(Cl)(Cl)Cl)C(Cl)(Cl)Cl (stereo not given)
Response: 1.01

Query: Output measured growth AUC for this item: `CCNc1nc(NCC)nc(OC)n1`
Response: 1

Query: Please give measured growth AUC of the following entry: `CC(C)OC(=O)c1cc(C(=O)OC(C)C)cc([N+](=O)[O-])c1`
Response: 0.974

Query: Supply growth AUC value. Item: `COc1ccccc1C(=O)NS(=O)(=O)c1ccc(C(=O)NC2CC2)cc1`
Response: 1
